Reference source: the domain aggregation screens of Martell et al. (2025)

ASSAY DETAILS: soluble fraction after stress (log2 fold change); higher = more stays soluble; pooled small domains, quantitative proteomics
CONDITIONS: stress: 50 degC
QUANTITY NAME: soluble fraction (log2)
Please respond with just the number, no unit label.

HMKQQFTREQIIELMYKAYKKHKKKLNRVEIKKEKALPSYVTIGRYLNETSIKKIWEIVLSEKE | -0.43

Reported soluble fraction (log2) for `HMKERLLDPYKDFIVNYLQKYPYTPAAVMHDKLKESYPDFPKVDPKTIYNFVMLLRRDFNIPKV` : what is it?
-0.306

For `HMSDSAFAEMRRELEALRNSNAEYERALSNFFPEAEDKALAAEAFYQNREYDELVAEREEANVIDGLKR` , what is its reported soluble fraction (log2)?
-0.094

Any idea what its soluble fraction (log2) is? The sequence is `HMAEQDILQSVYPHIGGQDNVSRTISRNGTLYLMLKDASAVDLKAVKQVPGIADAALERGRLTLQLEE`
0.0398

Fill blank: measured soluble fraction (log2) of the sequence `HMSLPQSKDAVITILRTLPQLDTRAPEVYKLLGPHALDIILEDPEQVAKKINHVGVATAKLWQQALLGFK` is ____.
-0.2

Which soluble fraction (log2) reading was recorded for the sequence `HMEQISIETRIEQLLARLSETEASGFEELFADTSSRADLITTFLALLEMIRLKLVRVFQDGSFGPIRIYKR` ?
-0.27

soluble fraction (log2) lookup needed for `HMLMKPQKTRDVLRYLKSIGWVRLRGGQGSHEIWGLPDGSIRAVIPAGHREISAGVLMQLKRAGVDVPTQW` , thanks.
-0.557

What value of soluble fraction (log2) has been recorded for this entry: `HMALPDWLDPEAWAAWKRHRKAIRKPLTEDAVALSIRELAKLRDEGYGPTSVIENAILKGWQGLYPPK`
-0.133

Request the reported soluble fraction (log2) associated with `HMDISAFDTEFIISKFGGIRPMAQKLGVPVSTVQGWKQRQTIPQNRMGDILEAAKNYNLELTP`
0.0856

Give the measured soluble fraction (log2) of `HMENPLETYYSQWVSAIKREHPEASFVKDTDGKYYVEGLTKNRLAVIYENPHLVRLVNATTNLHVE` .
-0.305

I am curious: what soluble fraction (log2) value has been reported for `HMIDKIRYPELIMKLAHQQGGTIKRRDVEQLLHLQTKQAYRELSKLVDAGELVSVGRGPGAHYEVS` ?
0.042

Please report the recorded soluble fraction (log2) for `HMVSRKIENPYWANKEKQHIIAEFFYPDTNKRVTASIMNDGSNRDYEEILRGYSIEQIDANTNRRLEER` .
0.436

soluble fraction (log2) lookup needed for `HMNSGFEVFREVVNQGSFIGAANALGISAPAVSKQIKLLENRLGLLLLYRTTRNVTLTDIGKQLFDTLDNS` , thanks.
-1.97

Requested field: soluble fraction (log2). Item: `HMTSIISLAKARSIALQKVPGATSKNIHLSLDDEDDKQVYEGEIKYKQMEYVFEIDAKTGTFLKWTSERD`
-1.66

Would you mind telling me what soluble fraction (log2) value was observed for `HMAERVWASLLEIKNAVAIEDAKTLEDVDNSEKIAEERIAALNDDAKHPLAIAFIGKLRQDIAEKKIELA` ?
0.379

For the sequence `HMQVVVEKSKEKVIISGNQYYIHIVKKGETAFSIAKAYGITVDELVKNNPSAATVLKEGQALRIPVVE` , what soluble fraction (log2) is on record?
0.119

Request the reported soluble fraction (log2) associated with `HMEGVSPQTVQEHIRRFIAAEDPASPLSDEALREALGNLGINASRRTVAKYRGEMGIPSSAQRKR`
-0.053

* * *

ASSAY DETAILS: soluble fraction after stress (log2 fold change); higher = more stays soluble; pooled small domains, quantitative proteomics
CONDITIONS: stress: 50 degC
QUANTITY NAME: soluble fraction (log2)
No unit in the answer, please; the number alone is enough.

HMRKEEFIRELVLELKQNVSEQVILEQKRFYEEYILTEVRGGKTEEEVIASLSEPRLLAKSIIDAAEAGGD | -0.155
HMLFVKLSDAQRSMFGAKLARDARIQSEYAQKLPSENYEVFGKALADMLLDETHFKTFYPLLVEYGYTQPK | -0.406
HMTVGEKIQKYRKDLDLSQEELGQKLLVSRQTISLWEKDQTVPTIDNLIRLREIFGVSVDEILGF | -0.409

Please examine the following record next.
Request the reported soluble fraction (log2) associated with `HMEALPSNLRRLRLEAQLTLDRLGALSGVSRAMISKIERGASVPTATMLGKLAAALQVSLSQLL`
-0.97

* * *

ASSAY DETAILS: soluble fraction after stress (log2 fold change); higher = more stays soluble; pooled small domains, quantitative proteomics
CONDITIONS: stress: 50 degC
QUANTITY NAME: soluble fraction (log2)
Could you keep your reply to the number by itself?

The examples below pair each entry with its known result.
HMGEKTVPNVIGQKLATAKQLLEKEGLTVGSTSYNKNQADKDTVLSTDPAPGSHLSEGAKVNLTLSSGA | 0.261
HMELVQIIGNNIRDLMTTRSVTITDLANYLNVSRQTLQNYLRGSNIIDSVKLVAVSDFFDVPVESLLQSK | -1.04
HMKTVLDSLLRILDSKELDIVVLRHIVGLTLTEIAKEKDMKKGTVFWMYNRAVKKLRLESERMGL | -2.11
HMEKPTEITLSNRVSVQELAEKMYVSETDIIRTLFLDGRIININQVLDIDTAIRVGEQLGIKIKII | -0.496

Sample `HMGDLEEAVKDFSEAIRLNDSWAEAYANRAVVYAEQGDAAQSDQDAEKARLLGVDQNRLNEMLNAVNS` — what was its soluble fraction (log2)?
0.0258

* * *

ASSAY DETAILS: soluble fraction after stress (log2 fold change); higher = more stays soluble; pooled small domains, quantitative proteomics
CONDITIONS: stress: 50 degC
Parameter class (string): assigned from measured soluble fraction (log2). Ranges: low class: < -0.3; middle class: ≥ -0.3 and < 0.03; high class: ≥ 0.03

Observe how each entry below is paired with its result.
HMSTPENLGGRNTAKARISWLENGVKQELESDFPAAEVVKLSSRFGGEVPELTVIRPSLEDIYLKMIG | high class
HMSINQTIEGKKQGYWIIYGNMRNLQEYLSNEVIEEGQFKNSRKEGVWRKYFPGGQMKSEITYINGRP | low class
HMFQEGLVAPPAYTRPESFRGWEVPEILRSGNFPAIAKWQHEESLRLTRERRPAMLEAYERRT | high class
HMYAPKIETIQVPQDKIREVIGTGGKVIREIVETTGAKIDIGDTGLIKVASSDGEAIRAALDWINSIVAE | high class
HMQYDESSQLGERFLNQALNALKADPDKVGDAQWEKLLKENSAKSRQEVLADIGLGKQLAIVIARELLS | middle class

# bin label for `HMARIDYHAMDSDDLSFSEGELLEIYDKPGSFWWKGRSLVSGDEGDIPS`
middle class

Tag the class for `HMSDSLVLTGVAYVDGKPVVTLFDKVKKESLVVTDQPNLKGWTLVEATQSSDIKRATAKVNIGGEPVSIRY`
high class

For this sequence, which bin applies? `HMDPGPVLISAQVLDDLEAIRRDGSSNMLDWPAVARLAEVMGMDRTAAWVRTHHREYSAGIFRGFASD`
low class

Band for `HMSYKDIKEASDTGTYRDEENNIDVKWQKLFNGHNEYFDIEAYRDGERVEINNQQADRYIYLIKQEMD` ?
middle class

Please indicate the class for `HMFVTGTTIKKLREEKRMTQGELAQMIGVSDKAVSKWETGRGLPDISLLEPLSRALGISVAELFAGQH` based on its soluble fraction (log2).
middle class

Would you mind sorting `HMGWVMLVIMSRGASEAQINAVVEKIRAAGLTEHLSKGIERTIIGAIGEERKLEPEVFELLPGVEQALHIV` into the appropriate category?
low class

Quick check: band for `HMILQTLSERVTETLRDWILHGHFKPGDKIEEVPIAERMGVSRTPVRAAFATLTNEGLIDHQPNRGYQVRV`
low class

Tag the class for `HMDPLADLFSRIRNAQMRNKKVVTSPASKLRAGILEVLAKEGYIRGYAMTQHASGKNELDIELN`
low class

Into which bin does this sequence go? `HMKAAQDQDQAATLLQKATGVNQDQAKLAATVLFKEQSVTPIRQAIASGDYYQAYQDAKSLQQQ`
middle class

* * *

Reported soluble fraction (log2) values for the following sequences.
ASSAY DETAILS: soluble fraction after stress (log2 fold change); higher = more stays soluble; pooled small domains, quantitative proteomics
CONDITIONS: stress: 50 degC
Please reply with the value in numeric form only.

Study these solved cases before continuing.
HMRQYPSGVFKEEGVKAVYIHAGTPFLVIAAQYKIPLARLFEWNNLLPSTEARISQVIYLERPG | -3.67
HMEFENIEQRKQYWSDLYRELKAGQDAYAKELKKGTEGYTQDELDILKEFTDEAKKQMEAAGVEATDEFAS | -0.187
HMNATPDMERYWASSAAEGRALEPLYAVSRGDGGEPLWWSPSRAQAERMAREEGGPLTVDRIDPP | -0.0411
HMSNEKVVKFAQELLVDEERSAISPALISAKIDQVLMFKPAWNEGLDRDAVVNELVRRFSIW | -0.841
HMSSAYLTVRGIDIDVIYKDIKNLHIAVYPPFGRVRVAAPSHLDDDQVRLAVIQRLTWIKRQRERLRST | -1.41
HMIGRIKGQLIEKKSDSVVIDVHGIGYVVYVTEKTARSLTLGDQSRDISLYSELLVKEDLLQLVGFI | 0.0137
HMKPSISKIYALWGVLQRSGKIKSQDKAALDAFVRKYTGVDHVKWLDESQARKIIEILKQMIA | -0.458

Now consider the entry below.
Sample `HMLDPVLQREKDESFTDYHIRLFKNKDTYHIDTKTIATLLNKDQGTNYDESKWRKDFKQYERWNDYIMSKN` — what was its soluble fraction (log2)?
0.145
